study-system: T1, Human CD47-C33G (human, UniProt Q08722 19-135)
T1 construct: also called CD47 mutein with C33G mutation
T1 sequence (Q08722 19-135 C33G limits assumed): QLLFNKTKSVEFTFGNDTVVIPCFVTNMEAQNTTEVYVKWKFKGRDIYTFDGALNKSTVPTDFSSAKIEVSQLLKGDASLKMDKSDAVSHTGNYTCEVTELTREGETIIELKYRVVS
assay-notes: SPR, IgG captured, CD47 in flow; exp 4;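 also: rates fitted from SPR association and dissociation curves, KD estimated from them, the other target is a CD47 C33G mutein, used to obtain true monovalent affinity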
experimental-endpoint: koff (s⁻¹)
Give the number; s⁻¹ is assumed, so skip it.

108VH10.Mp / 108VL10.Me (antibody, V domains shown, 4D5-framework series; constant regions not restated for this series; also called VH10.Mp VL10.Me) VH: EVQLVESGGGLVQPGGSLRLSCAASGFTFSHHWIHWVRQAPGKGLEWVAMIDASDSETRLVDSFKGRFTISADTSKNTAYLQMNSLRAEDTAVYYCSRLGRYYFDYWGQGTLVTVSS VL: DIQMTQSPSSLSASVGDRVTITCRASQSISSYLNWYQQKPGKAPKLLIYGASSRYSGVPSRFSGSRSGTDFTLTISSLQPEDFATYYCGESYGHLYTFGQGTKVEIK yielded koff of 0.012

Given item chimeric antibody 108C10A6 (antibody, V domains shown, Chimeric antibody with mouse variable domains; captured through human Fc; also called VH / VL) VH: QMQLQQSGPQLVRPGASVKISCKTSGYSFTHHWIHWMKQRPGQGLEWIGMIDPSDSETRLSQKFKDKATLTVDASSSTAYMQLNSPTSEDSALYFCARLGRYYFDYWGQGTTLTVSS VL: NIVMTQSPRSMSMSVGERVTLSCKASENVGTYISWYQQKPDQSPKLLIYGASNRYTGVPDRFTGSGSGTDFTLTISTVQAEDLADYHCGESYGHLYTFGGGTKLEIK , the value recorded as its koff is 0.00061

Summary for this binder, 108VH10 / 108VL10.M1 (antibody, V domains shown, 4D5-framework series; also called VH10 VL10.M1; straight-graft antibody) VH: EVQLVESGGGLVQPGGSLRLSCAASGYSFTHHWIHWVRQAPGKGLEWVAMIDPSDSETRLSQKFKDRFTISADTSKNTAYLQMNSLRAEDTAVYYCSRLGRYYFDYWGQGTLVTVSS VL: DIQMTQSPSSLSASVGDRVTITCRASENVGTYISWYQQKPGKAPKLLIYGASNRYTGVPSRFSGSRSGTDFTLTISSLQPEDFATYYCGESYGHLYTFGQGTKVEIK : koff is 0.003

The binder identified as 108VH10.Mq / 108VL10.Me (antibody, V domains shown, 4D5-framework series; constant regions not restated for this series; also called VH10.Mq VL10.Me) VH: EVQLVESGGGLVQPGGSLRLSCAASGFTFSHHWIHWVRQAPGKGLEWVAMIDASDSETRLSDSVKGRFTISADTSKNTAYLQMNSLRAEDTAVYYCSRLGRYYFDYWGQGTLVTVSS VL: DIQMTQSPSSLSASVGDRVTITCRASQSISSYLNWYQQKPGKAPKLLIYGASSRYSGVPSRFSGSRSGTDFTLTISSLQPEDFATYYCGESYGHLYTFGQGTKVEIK registered its koff at 0.024
